Value source: paper PMC7071076

test.description: Pharmacokinetic study in mice
Type: in vivo
protocol.conditions: female, ICR, mouse, plasma, po, 10 mg/kg, mice, oral 10 mg/kg, 0.5 h, n = 8; read-out: plasma concentration, mean ± S.D
parameter: concentration at 0.5 h (ng/mL)
# value in ng/mL; strip the unit string

Name the reported concentration at 0.5 h value associated with the molecule C=C[C@]1(C)C[C@@H](OC(=O)CSc2ccccc2N)[C@]2(C)[C@H](C)CC[C@]3(CCC(=O)[C@H]32)[C@@H](C)[C@@H]1O
310

====

test.description: Pharmacokinetic study in mice
Format: in vivo
protocol.conditions: female, ICR, mouse, plasma, po, 10 mg/kg, mice, oral 10 mg/kg, 8 h, n = 8; read-out: plasma concentration, mean ± S.D
parameter: concentration at 8 h (ng/mL)
# value in ng/mL; strip the unit string

Name the reported concentration at 8 h value associated with the compound C=C[C@]1(C)C[C@@H](OC(=O)CSc2ccccc2N)[C@]2(C)[C@H](C)CC[C@]3(CCC(=O)[C@H]32)[C@@H](C)[C@@H]1O [Amphenmulin]
50

====

test.description: Pharmacokinetic study in mice
Format: in vivo
protocol.conditions: female, ICR, mouse, plasma; mice, 10 mg/kg, intravenous
parameter: AUC(0-inf) (ng·h/mL)
# value in ng·h/mL; strip the unit string

Name the reported AUC(0-inf) value associated with the compound C=C[C@]1(C)C[C@@H](OC(=O)CSc2ccccc2N)[C@]2(C)[C@H](C)CC[C@]3(CCC(=O)[C@H]32)[C@@H](C)[C@@H]1O
12200

====

test.description: Pharmacokinetic study in mice
Format: in vivo
protocol.conditions: female, ICR, mouse, plasma, po, 10 mg/kg, mice, oral 10 mg/kg, 0.25 h, n = 8; read-out: plasma concentration, mean ± S.D
parameter: concentration at 0.25 h (ng/mL)
# value in ng/mL; strip the unit string

Name the reported concentration at 0.25 h value associated with the compound C=C[C@]1(C)C[C@@H](OC(=O)CSc2ccccc2N)[C@]2(C)[C@H](C)CC[C@]3(CCC(=O)[C@H]32)[C@@H](C)[C@@H]1O
90

====

test.description: Pharmacokinetic study in mice
Format: in vivo
protocol.conditions: female, ICR, mouse, plasma, ip; mice, 10 mg/kg, intraperitoneal; read-out: Vz/F
parameter: Vd/F (L/kg)
# value in L/kg; strip the unit string

Name the reported Vd/F value associated with the compound C=C[C@]1(C)C[C@@H](OC(=O)CSc2ccccc2N)[C@]2(C)[C@H](C)CC[C@]3(CCC(=O)[C@H]32)[C@@H](C)[C@@H]1O
15.9

====

test.description: Pharmacokinetic study in mice
Assay type: in vivo
protocol.conditions: female, ICR, mouse, plasma; mice, 10 mg/kg, oral
parameter: bioavailability

Name the reported bioavailability value associated with the compound C=C[C@]1(C)C[C@@H](OC(=O)CSc2ccccc2N)[C@]2(C)[C@H](C)CC[C@]3(CCC(=O)[C@H]32)[C@@H](C)[C@@H]1O
13.7%

====

test.description: Pharmacokinetic study in mice
Format: in vivo
protocol.conditions: female, ICR, mouse, plasma, po, 10 mg/kg, mice, oral 10 mg/kg, 3 h, n = 8; read-out: plasma concentration, mean ± S.D
parameter: concentration at 3 h (ng/mL)
# value in ng/mL; strip the unit string

Name the reported concentration at 3 h value associated with the compound C=C[C@]1(C)C[C@@H](OC(=O)CSc2ccccc2N)[C@]2(C)[C@H](C)CC[C@]3(CCC(=O)[C@H]32)[C@@H](C)[C@@H]1O
220

====

test.description: Pharmacokinetic study in mice
Type: in vivo
protocol.conditions: female, ICR, mouse, plasma, intraperitoneal, 10 mg/kg, mice, intraperitoneal 10 mg/kg, 2 h, n = 8; read-out: plasma concentration, mean ± S.D
parameter: concentration at 2 h (ng/mL)
# value in ng/mL; strip the unit string

Name the reported concentration at 2 h value associated with the compound C=C[C@]1(C)C[C@@H](OC(=O)CSc2ccccc2N)[C@]2(C)[C@H](C)CC[C@]3(CCC(=O)[C@H]32)[C@@H](C)[C@@H]1O [Amphenmulin]
340

====

test.description: Pharmacokinetic study in mice
Assay type: in vivo
protocol.conditions: female, ICR, mouse, plasma, ip; mice, 10 mg/kg, intraperitoneal
parameter: half-life
Please append the unit to your numeric answer.

Name the reported half-life value associated with the compound C=C[C@]1(C)C[C@@H](OC(=O)CSc2ccccc2N)[C@]2(C)[C@H](C)CC[C@]3(CCC(=O)[C@H]32)[C@@H](C)[C@@H]1O
2.64 h

====

test.description: Pharmacokinetic study in mice
Type: in vivo
protocol.conditions: female, ICR, mouse, plasma, po, 10 mg/kg, mice, oral 10 mg/kg, 4 h, n = 8; read-out: plasma concentration, mean ± S.D
parameter: concentration at 4 h (ng/mL)
# value in ng/mL; strip the unit string

Name the reported concentration at 4 h value associated with the compound C=C[C@]1(C)C[C@@H](OC(=O)CSc2ccccc2N)[C@]2(C)[C@H](C)CC[C@]3(CCC(=O)[C@H]32)[C@@H](C)[C@@H]1O
150

====

test.description: Pharmacokinetic study in mice
Type: in vivo
protocol.conditions: female, ICR, mouse, plasma, iv, 10 mg/kg, intravenous 10 mg/kg, 0.083 h, mice 1-8 in order; read-out: plasma concentration, individual mice
parameter: concentration at 0.083 h
Please append the unit to your numeric answer.

Name the reported concentration at 0.083 h value associated with the compound C=C[C@]1(C)C[C@@H](OC(=O)CSc2ccccc2N)[C@]2(C)[C@H](C)CC[C@]3(CCC(=O)[C@H]32)[C@@H](C)[C@@H]1O
3060 ng/mL

====

test.description: Pharmacokinetic study in mice
Type: in vivo
protocol.conditions: female, ICR, mouse, plasma, iv, 10 mg/kg, mice, intravenous 10 mg/kg, 1 h, n = 8; read-out: plasma concentration, mean ± S.D
parameter: concentration at 1 h (ng/mL)
# value in ng/mL; strip the unit string

Name the reported concentration at 1 h value associated with the compound C=C[C@]1(C)C[C@@H](OC(=O)CSc2ccccc2N)[C@]2(C)[C@H](C)CC[C@]3(CCC(=O)[C@H]32)[C@@H](C)[C@@H]1O [Amphenmulin]
3190

====

test.description: Pharmacokinetic study in mice
Assay type: in vivo
protocol.conditions: female, ICR, mouse, plasma, ip; mice, 10 mg/kg, intraperitoneal
parameter: AUC(0-inf)

Name the reported AUC(0-inf) value associated with the compound C=C[C@]1(C)C[C@@H](OC(=O)CSc2ccccc2N)[C@]2(C)[C@H](C)CC[C@]3(CCC(=O)[C@H]32)[C@@H](C)[C@@H]1O
2520 ng·h/mL

====

test.description: Pharmacokinetic study in mice
Assay type: in vivo
protocol.conditions: female, ICR, mouse, plasma; mice, 10 mg/kg, oral
parameter: AUC(0-inf) (ng·h/mL)
# value in ng·h/mL; strip the unit string

Name the reported AUC(0-inf) value associated with the compound C=C[C@]1(C)C[C@@H](OC(=O)CSc2ccccc2N)[C@]2(C)[C@H](C)CC[C@]3(CCC(=O)[C@H]32)[C@@H](C)[C@@H]1O [Amphenmulin]
1670

====

test.description: Pharmacokinetic study in mice
Type: in vivo
protocol.conditions: female, ICR, mouse, plasma, iv, 10 mg/kg, intravenous 10 mg/kg, 6 h, mice 1-8 in order; read-out: plasma concentration, individual mice
parameter: concentration at 6 h
Please append the unit to your numeric answer.

Name the reported concentration at 6 h value associated with the compound C=C[C@]1(C)C[C@@H](OC(=O)CSc2ccccc2N)[C@]2(C)[C@H](C)CC[C@]3(CCC(=O)[C@H]32)[C@@H](C)[C@@H]1O [Amphenmulin]
460 ng/mL

====

test.description: Pharmacokinetic study in mice
Type: in vivo
protocol.conditions: female, ICR, mouse, plasma, po, 10 mg/kg, mice, oral 10 mg/kg, 2 h, n = 8; read-out: plasma concentration, mean ± S.D
parameter: concentration at 2 h (ng/mL)
# value in ng/mL; strip the unit string

Name the reported concentration at 2 h value associated with the compound C=C[C@]1(C)C[C@@H](OC(=O)CSc2ccccc2N)[C@]2(C)[C@H](C)CC[C@]3(CCC(=O)[C@H]32)[C@@H](C)[C@@H]1O
360

====

test.description: Pharmacokinetic study in mice
Format: in vivo
protocol.conditions: female, ICR, mouse, plasma, intraperitoneal, 10 mg/kg, mice, intraperitoneal 10 mg/kg, 0.25 h, n = 8; read-out: plasma concentration, mean ± S.D
parameter: concentration at 0.25 h (ng/mL)
# value in ng/mL; strip the unit string

Name the reported concentration at 0.25 h value associated with the compound C=C[C@]1(C)C[C@@H](OC(=O)CSc2ccccc2N)[C@]2(C)[C@H](C)CC[C@]3(CCC(=O)[C@H]32)[C@@H](C)[C@@H]1O
1220

====

test.description: Pharmacokinetic study in mice
Format: in vivo
protocol.conditions: female, ICR, mouse, plasma, iv, 10 mg/kg, mice, intravenous 10 mg/kg, 4 h, n = 8; read-out: plasma concentration, mean ± S.D
parameter: concentration at 4 h (ng/mL)
# value in ng/mL; strip the unit string

Name the reported concentration at 4 h value associated with the compound C=C[C@]1(C)C[C@@H](OC(=O)CSc2ccccc2N)[C@]2(C)[C@H](C)CC[C@]3(CCC(=O)[C@H]32)[C@@H](C)[C@@H]1O [Amphenmulin]
1010
